- Study system: T1, soluble HLA-A2 (…) tetramer (human)
- T1 construct: Bought tetramer reagent; also called MAGE-A4/HLA tetramer reagent; HLA-A02:01 MAGE-A4 tetramer
- Protocol summary: flow cytometry, HLA-A2 (…) tetramer staining of CHO cells transfected with the TCR
Measurement type: % in Ag+ gate >250 MFI, >1% (%)
Answers are plain numbers, in %.

Solved entries:
- Binder: "PN41703 (TCR, V domains shown, stained with anti-mouse TCR constant region H57-597; full-length chains on transfected CHO cells; also called TCR No. 26) V domain 1: DAKTTQPPSMDCAEGRAANLPCNHSTISGNEYVYWYRQIHSQGPQYIIHGLKNNETNEMASLIITEDRKSSTLILPHATLRDTAVYYCIVRPGGTYKYIFGTGTRLKVLA V domain 2: DVKVTQSSRYLVKRTGEKVFLECVQDMDHENMFWYRQDPGLGLRLIYFSYDVKMKEKGDIPEGYSVSREKKERFSLILESASTNQTSMYLCATGGDNQPQHFGDGTRLSIL"
  Endpoint unit: "%"
  % in Ag+ gate >250 MFI, >1%: 42.5
- Binder: "PN41518 (TCR, V domains shown, stained with anti-mouse TCR constant region H57-597; full-length chains on transfected CHO cells; also called TCR No. 5) V domain 1: AQTVTQSQPEMSVQEAETVTLSCTYDTSESDYYLFWYKQPPSRQMILVIRQEAYKQQNATENRFSVNFQKAAKSFSLKISDSQLGDAAMYFCAYRSAPGNQFYFGTGTSLTVIP V domain 2: DVKVTQSSRYLVKRTGEKVFLECVQDMDHENMFWYRQDPGLGLRLIYFSYDVKMKEKGDIPEGYSVSREKKERFSLILESASTNQTSMYLCASSLWATNEKLFFGSGTQLSVL"
  Endpoint unit: "%"
  % in Ag+ gate >250 MFI, >1%: 34.9
- Binder: "PN41829 (TCR, V domains shown, stained with anti-mouse TCR constant region H57-597; full-length chains on transfected CHO cells; also called TCR No. 33) V domain 1: AQTVTQSQPEMSVQEAETVTLSCTYDTSESDYYLFWYKQPPSRQMILVIRQEAYKQQNATENRFSVNFQKAAKSFSLKISDSQLGDAAMYFCAYRSATGNQFYFGTGTSLTVIP V domain 2: DVKVTQSSRYLVKRTGEKVFLECVQDMDHENMFWYRQDPGLGLRLIYFSYDVKMKEKGDIPEGYSVSREKKERFSLILESASTNQTSMYLCASSLFALNTEAFFGQGTRLTVV"
  Endpoint unit: "%"
  % in Ag+ gate >250 MFI, >1%: 19.5

The reported value for PN41523 (TCR, V domains shown, stained with anti-mouse TCR constant region H57-597; full-length chains on transfected CHO cells; also called TCR No. 7) V domain 1: AQTVTQSQPEMSVQEAETVTLSCTYDTSESDYYLFWYKQPPSRQMILVIRQEAYKQQNATENRFSVNFQKAAKSFSLKISDSQLGDAAMYFCAYRSAPGNQFYFGTGTSLTVIP V domain 2: DVKVTQSSRYLVKRTGEKVFLECVQDMDHENMFWYRQDPGLGLRLIYFSYDVKMKEKGDIPEGYSVSREKKERFSLILESASTNQTSMYLCASSLWGLNTEAFFGQGTRLTVV in terms of % in Ag+ gate >250 MFI, >1% is 90.5
